Where these numbers come from: patent US8003695B2

Tested on: THP-1 cells
EXPERIMENT_SUMMARY: LPS-Stimulation of THP-1 Cells, TNF-α release
Type: cell-based
TEST_CONDITIONS: Homo sapiens, LPS 1 μg/ml, 6 hrs, read-out: Inhibitor activity versus THP-1 TNFα release
pIC50: −log10 of the molar value.
compounds and their reported pIC50

These recorded examples may help you get a feel for the data.
{"MOLECULAR_STRING": "CC(C)C[C@H](NCCc1cccc(-c2cc(C(N)=O)c(NC(N)=O)s2)c1)C(=O)OC1CCCC1", "pIC50": "> 6.00"}
{"MOLECULAR_STRING": "CC(C)C[C@H](NCc1ccc(-c2cc(C(N)=O)c(NC(N)=O)s2)cc1)C(=O)OC1CCCC1", "pIC50": "< 5.30"}
{"MOLECULAR_STRING": "CC(C)C[C@H](NCCc1ccc(-c2cc(C(N)=O)c(NC(N)=O)s2)c(Cl)c1)C(=O)OC1CCCC1", "pIC50": "< 5.30"}

Quick one: pIC50 for CC(C)C[C@H](NCc1ccc(-c2cc(C(N)=O)c(NC(N)=O)s2)c(Cl)c1)C(=O)OC1CCCC1 ?
< 5.30

Subsequent entry: Cc1cc(-c2cc(C(N)=O)c(NC(N)=O)s2)ccc1CN[C@@H](CC(C)C)C(=O)OC1CCCC1
5.30 to 6.00

Note, next up: Cc1cc(-c2cc(C(N)=O)c(NC(N)=O)s2)ccc1/C=C/CN[C@@H](CC(C)C)C(=O)OC1CCCC1
5.30 to 6.00

Can you handle NC(=O)Nc1sc(-c2ccc(CN[C@H](C(=O)OC3CCCC3)c3ccccc3)cc2)cc1C(N)=O next?
5.30 to 6.00

Also check CC(C)C[C@H](NCCCOc1ccc(-c2cc(C(N)=O)c(NC(N)=O)s2)c(Cl)c1)C(=O)OC1CCCC1
5.30 to 6.00

Lookup CC(C)C[C@H](NC/C=C/c1ccc(-c2cc(C(N)=O)c(NC(N)=O)s2)c(Cl)c1)C(=O)OC1CCCC1
5.30 to 6.00
